The measured values listed here are drawn from PubChem BioAssay (NCI).

# Test system: SF-268 CNS
# ASSAY NAME: NCI tumour cell line growth inhibition, 48 h
What TGI was measured for each of the following?

# count of solved cases: 5
- MOLECULE: "O=C(NC1CCCC1=O)c1ccccc1 (stereo unspecified)"
  SYSTEM UNDER TEST: "SF-268 CNS"
  TGI: "> 100 µM"
- MOLECULE: "CCOC1=C2N=C(Cc3ccccc3F)N=C2C(=O)c2ccccc21"
  SYSTEM UNDER TEST: "SF-268 CNS"
  TGI: "> 100 µM"
- MOLECULE: "CCOC(=O)CSc1nnc(C(Sc2nc(-c3ccccc3)c(-c3ccccc3)[nH]2)C(C)C)n1-c1ccccc1 (stereo unspecified)"
  SYSTEM UNDER TEST: "SF-268 CNS"
  TGI: "> 31.6 µM"
- MOLECULE: "CSC(=S)N/N=C(\\C)c1cccc(C)n1"
  SYSTEM UNDER TEST: "SF-268 CNS"
  TGI: "46.7 µM"
- MOLECULE: "CC(C)=CCC/C(C)=C/CC/C(C)=C/CC/C=C(\\C)CC/C=C(\\C)CCC(=O)Nc1ccn(C2OC(CO)C(O)C2(F)F)c(=O)n1 (stereo unspecified)"
  SYSTEM UNDER TEST: "SF-268 CNS"
  TGI: "3.51 µM"

Give TGI for each listed item.
1. [N-]=[N+]=C1C(=O)C2CC3CC(C2)CC1C3
2. CCOc1cc(NC(C)=O)ccc1C(=O)NN1C(=O)C(Cl)C1c1ccco1 (stereo unspecified)
3. N#C/C(=C\c1c[nH]c2ccccc12)C(=O)c1ccc(O)c(O)c1
4. O=C(O)CNC(=O)c1c2ccccc2nc2ccccc12
5. C/C(=C/CC[C@]1(CO)CC[C@]2(CO)[C@H](CC[C@@H]3[C@@]4(C)CC[C@H](OC5OCC(O)C(O)C5OC5OC(CO)C(O)C(O)C5O)C(C)(C)[C@@H]4CC[C@]32C)[C@H]1O)CO (stereo partly specified)
6. CCn1c2ccccc2c2cc(/C=C(/C#N)C(N)=O)ccc21
7. CCN1C(=O)N(CC)C2C1NN=c1s/c(=C3\C(=O)N(CCc4ccccc4)c4ccccc43)c(=O)n12 (stereo unspecified)
8. COc1ccc(C=O)c(NC(=O)C(C)C)c1

1: > 100 µM; 2: 35.1 µM; 3: > 100 µM; 4: > 100 µM; 5: > 100 µM; 6: > 100 µM; 7: 27.4 µM; 8: > 100 µM

###

# Tested on: UACC-257 melanoma
# ASSAY NAME: NCI tumour cell line growth inhibition, 48 h
READOUT TYPE: TGI

Hi there! I need TGI for each item below, if you can.
1. CCCCn1c(=O)c2c(nc3n2CCCN3CCc2ccc(OCC(=O)NCCN(CC)CC)cc2)n(CCCC)c1=O
2. COc1cc(C2C3=C(COC3=O)Oc3cc4c(cc32)OCO4)cc(OC)c1OC(C)=O (stereo not given)
3. COc1ccc(-c2cc(=O)c3c(OC)c(OC)c(OC)c(OC)c3o2)cc1
4. Cc1cc(O)c(C(C)C)cc1C1(c2cc(C(C)C)c(O)cc2C)OC(=O)c2ccccc21
5. CCN(Cc1ccc(Cl)s1)c1ccc(CO)c(Cl)c1

2.16 µM
> 100 µM
> 100 µM
3.6 µM
0.298 µM

###

# Test system: HOP-92 NSCLC
# ASSAY NAME: NCI tumour cell line growth inhibition, 48 h; in the data active means GI50 below about 0.43 µM; inactive means the rest
Pick one: yes (1) (active), no (0) (inactive)

- MOLECULE: "C[CH2][Pb]([CH2]C)([CH2]C)[O]C(=O)c1ccc2ccccc2n1"
  ASSIGNED LABEL: "no (0)"
- MOLECULE: "C#CCOc1cccc(Nc2ncnc3c(NC(=O)CCl)cccc23)c1"
  ASSIGNED LABEL: "no (0)"
- MOLECULE: "COc1ccc(OC)c(C2SCC(=O)N2NC(=O)C(O)c2ccccc2)c1 (stereo unspecified)"
  ASSIGNED LABEL: "no (0)"
- MOLECULE: "O=C(Oc1cccnc1)c1ccsc1Nc1ccnc(C(F)(F)F)c1"
  ASSIGNED LABEL: "no (0)"
- MOLECULE: "N#CN1CC[C@H](C(=O)Nc2ncc(-c3ccncc3)s2)C1"
  ASSIGNED LABEL: "yes (1)"

Read the next record carefully.
Which outcome was assigned to COc1ccc(OC)c(Cn2cc3c(c2)-c2oncc2CC3)c1 in this test? no (0)

###

# Tested on: RXF 393 renal
# ASSAY NAME: NCI tumour cell line growth inhibition, 48 h; in the data active means GI50 below about 0.43 µM; inactive means the rest
Entry note: the call must match one of active, inactive

- COMPOUND: "CC1(C)N=C(N)N=C(N)N1c1ccc(CCCCc2ccc(S(=O)(=O)F)cc2)c(Cl)c1"
  ASSIGNED LABEL: "active"
- COMPOUND: "COc1ccc2c(c1OC)C(=O)OC2C1c2c(c([N+](=O)[O-])c3c(c2OC)OCO3)CCN1C (stereo unspecified)"
  ASSIGNED LABEL: "inactive"
- COMPOUND: "Cc1cccc(NC(=O)c2sc3nc4c(cc3c2N)CN(Cc2ccccc2)CC4)c1C"
  ASSIGNED LABEL: "active"
- COMPOUND: "CC(C)(C)CN1CCn2c(nc3c(N)nccc32)S1"
  ASSIGNED LABEL: "inactive"
- COMPOUND: "C[C@@H]1O[C@@H](O[C@H]2CC[C@@]3(C)[C@H](CCC4[C@@H]3C(O)C[C@]3(C)[C@@H](c5ccc(=O)oc5)CC[C@]43O)C2)[C@H](O)[C@H](O)[C@H]1O (stereo partly specified)"
  ASSIGNED LABEL: "active"
- COMPOUND: "CCN(CCO)CC(C)Nc1ccc([N+](=O)[O-])c2sc3ccccc3c(=O)c12 (stereo unspecified)"
  ASSIGNED LABEL: "inactive"

Assay result, entry C#CCOc1cccc(Nc2ncnc3c(NC(=O)CCl)cccc23)c1 — outcome? inactive

What call does the record list for CCn1c2ccccc2c2cc(/C=C(/C#N)C(N)=O)ccc21 ? inactive

Each compound tested received a call. Report the one for BrCc1ccc(CBr)cc1 . inactive

// outcome(item) with item = COc1cc2c(c(OC)c1OC)-c1ccc(SC)c(=O)cc1[C@@H](NC1OC(CO)C(O)C(O)C1O)CC2 (stereo partly specified) active

Call for entry O=C(Oc1cccnc1)c1ccsc1Nc1ccnc(C(F)(F)F)c1 : inactive

###

Would you kindly list TGI for each of these compounds?
# Tested on: UACC-257 melanoma
# ASSAY NAME: NCI tumour cell line growth inhibition, 48 h
Give bare numbers, in µM.

Please review the following examples before continuing.
- COMPOUND: "CC1(C)CCC[C@]2(C)[C@@H](C=O)C(C=O)=CC[C@@H]12"
  SYSTEM UNDER TEST: "UACC-257 melanoma"
  MEASURE UNIT: "µM"
  TGI: 31.5
- COMPOUND: "CCOc1cc(NC(C)=O)ccc1C(=O)NN1C(=O)C(Cl)C1c1ccco1 (stereo not given)"
  SYSTEM UNDER TEST: "UACC-257 melanoma"
  MEASURE UNIT: "µM"
  TGI: 34.2
- COMPOUND: "N#CN1CC[C@H](C(=O)Nc2ncc(-c3ccncc3)s2)C1"
  SYSTEM UNDER TEST: "UACC-257 melanoma"
  MEASURE UNIT: "µM"
  TGI: 6.91

Batch: TGI for all items listed.
1. C=C1CCC2[C@@H](CCC3[C@]2(C)CCC[C@]3(C)C(=O)OC)[C@@H]1CC=O (stereo not given in full)
2. C[C@@H]1O[C@@H](O[C@H]2CC[C@@]3(C)[C@H](CCC4[C@@H]3C(O)C[C@]3(C)[C@@H](c5ccc(=O)oc5)CC[C@]43O)C2)[C@H](O)[C@H](O)[C@H]1O (stereo not given in full)
3. CC(C)(C)CN1CCn2c(nc3c(N)nccc32)S1

1: 68.9; 2: 0.0121; 3: 79.1

###

# Tested on: SK-MEL-28 melanoma
# ASSAY NAME: NCI tumour cell line growth inhibition, 48 h
READOUT TYPE: TGI

- MOLECULE: "CCOC(=O)c1ccc(C(=O)C(C(C)=O)C(=O)OC(C)(C)C)[nH]1 (stereo not given)"
  TGI: "> 100 µM"
- MOLECULE: "O=c1[nH]cnc2c(C3NC(CO)C(O)C3O)c[nH]c12 (stereo not given)"
  TGI: "> 100 µM"
- MOLECULE: "COc1ccc2c(c1)CCN1CCc3cc(OC)c(OC)cc3CC21 (stereo not given)"
  TGI: "> 100 µM"

Respectfully, I request TGI for each entry included below.
1. CN(CCCNC(=O)c1nn(-c2ccc(Cl)cc2Cl)c2c1Cc1ccccc1-2)CCCNC(=O)c1nn(-c2ccc(Cl)cc2Cl)c2c1Cc1ccccc1-2
2. OC(c1ccc(-c2ccccc2)cc1)C(F)(F)c1nc2ccccc2o1 (stereo not given)
3. COc1ccc(C2[C@@H](Cl)C(=O)N2c2cc(OC)c(OC)c(OC)c2)cc1Cl (stereo not given in full)
4. O=C(CSC1=NCCN1)Nc1ccccc1
5. Cc1ccc(NC(=O)c2ccccc2C(=O)O)cc1C
6. CCN(c1cccc(NC(=S)Nc2ccccc2N(CC)c2cc(-c3ccccc3)no2)c1)c1cc(-c2ccccc2)no1

["3.3 µM", "> 100 µM", "87.3 µM", "62.6 µM", "> 100 µM", "> 100 µM"]

# molecule Cc1ccc2c(=O)cc(-c3ccc(-c4ccccc4)s3)[nH]c2n1 ; its TGI = > 100 µM
